Let's go through some recorded IC50 values for UniProtKB O60678 together.
Sequence (O60678 211-531 limits assumed): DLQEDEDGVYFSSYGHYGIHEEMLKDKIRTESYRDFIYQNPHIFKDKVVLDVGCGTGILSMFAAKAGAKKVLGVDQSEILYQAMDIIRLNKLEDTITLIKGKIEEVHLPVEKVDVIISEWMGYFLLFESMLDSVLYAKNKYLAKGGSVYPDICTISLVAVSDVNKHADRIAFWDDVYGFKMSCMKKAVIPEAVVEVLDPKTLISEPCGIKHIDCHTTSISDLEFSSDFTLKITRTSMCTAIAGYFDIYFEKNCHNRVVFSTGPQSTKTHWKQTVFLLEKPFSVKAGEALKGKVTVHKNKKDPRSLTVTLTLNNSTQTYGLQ

{"columns": ["MOLECULE", "IC50"],
 "data": [
  ["COCCN1CCC(c2cc(CN(C)C(=O)c3cccc(Oc4ccccc4)c3)ccn2)CC1 [TP-064N]", "> 10 µM"]
]}

Now let's try a different one.
Prompt line: Find the recorded IC50 belonging to CNCCN1CCC(c2cc(CN(C)C(=O)c3cccc(Oc4ccccc4)c3)ccn2)CC1 [TP-064] and report it.
Response line: > 10 µM

====

System: BAF155 dimethylation in KMS-27 cells
ASSAY REMARKS: BAF155 dimethylation in MM cells, western blotting
Type: cell-based, human
DETAILS: Homo sapiens, 72 h; KMS-27, 3 days; read-out: methyl / total BAF155 IC50
ASSAY ENDPOINT: pIC50
Scale: negative log10 of molar concentration, which is what pIC50 denotes.

Prompt line: Identify the measured pIC50 of CNCCN1CCC(c2cc(CN(C)C(=O)c3cccc(Oc4ccccc4)c3)ccn2)CC1 for BAF155 dimethylation in KMS-27 cells.
Response line: 6.40

====

MEASUREMENT TARGET: PRMT7 (Homo sapiens, UniProt Q9NVM4)
Sequence (Q9NVM4 whole entry): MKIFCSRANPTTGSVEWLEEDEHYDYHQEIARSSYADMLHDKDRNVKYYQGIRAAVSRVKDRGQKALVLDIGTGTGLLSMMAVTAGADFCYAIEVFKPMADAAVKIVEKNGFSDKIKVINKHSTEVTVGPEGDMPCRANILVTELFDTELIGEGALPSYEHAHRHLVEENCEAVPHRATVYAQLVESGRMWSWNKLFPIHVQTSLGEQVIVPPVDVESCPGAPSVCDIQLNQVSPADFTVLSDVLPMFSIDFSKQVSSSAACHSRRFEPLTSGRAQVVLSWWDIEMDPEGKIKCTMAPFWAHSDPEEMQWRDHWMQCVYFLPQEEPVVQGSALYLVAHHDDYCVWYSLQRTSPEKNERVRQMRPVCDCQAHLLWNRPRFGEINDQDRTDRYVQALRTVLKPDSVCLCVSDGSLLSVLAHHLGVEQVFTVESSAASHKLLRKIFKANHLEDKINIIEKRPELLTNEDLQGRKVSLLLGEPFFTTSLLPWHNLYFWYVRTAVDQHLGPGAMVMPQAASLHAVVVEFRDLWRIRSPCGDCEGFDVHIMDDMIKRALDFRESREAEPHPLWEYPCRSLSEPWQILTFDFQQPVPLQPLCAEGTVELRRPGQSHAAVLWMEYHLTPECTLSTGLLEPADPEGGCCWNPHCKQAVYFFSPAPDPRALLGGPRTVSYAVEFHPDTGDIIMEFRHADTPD
ASSAY ENDPOINT: IC50

{"columns": ["COMPOUND", "MEASUREMENT TARGET", "ASSAY ENDPOINT", "DATA VALUE"],
 "data": [
  ["COCCN1CCC(c2cc(CN(C)C(=O)c3cccc(Oc4ccccc4)c3)ccn2)CC1 [TP-064N]", "PRMT7 (Homo sapiens, UniProt Q9NVM4)", "IC50", "> 10 µM"]
]}

Now let's try a different one.
Prompt line: Identify the measured IC50 of CNCCN1CCC(c2cc(CN(C)C(=O)c3cccc(Oc4ccccc4)c3)ccn2)CC1 for PRMT7 (Homo sapiens, UniProt Q9NVM4).
Response line: > 10 µM

====

MEASUREMENT TARGET: PRMT8 (Homo sapiens)
Sequence (Q9NR22 whole entry): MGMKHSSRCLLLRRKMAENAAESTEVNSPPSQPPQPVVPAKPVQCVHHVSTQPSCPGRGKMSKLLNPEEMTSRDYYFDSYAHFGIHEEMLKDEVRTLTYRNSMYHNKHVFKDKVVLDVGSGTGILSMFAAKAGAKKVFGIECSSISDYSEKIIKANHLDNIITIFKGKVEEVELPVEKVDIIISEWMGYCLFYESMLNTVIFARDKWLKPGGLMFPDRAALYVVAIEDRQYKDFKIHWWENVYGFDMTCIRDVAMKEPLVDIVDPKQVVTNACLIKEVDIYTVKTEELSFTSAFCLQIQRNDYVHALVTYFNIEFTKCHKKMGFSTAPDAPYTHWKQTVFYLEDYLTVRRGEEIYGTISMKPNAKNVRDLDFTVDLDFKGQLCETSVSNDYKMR
ASSAY ENDPOINT: pIC50
Scale: negative log10 of molar concentration, which is what pIC50 denotes.

Prompt line: Find the recorded pIC50 belonging to CNCCN1CCC(c2cc(CN(C)C(=O)c3cccc(Oc4ccccc4)c3)ccn2)CC1 and report it.
Response line: 5.09

====

MEASUREMENT TARGET: PRMT4 (Homo sapiens)
Sequence (Q86X55 whole entry): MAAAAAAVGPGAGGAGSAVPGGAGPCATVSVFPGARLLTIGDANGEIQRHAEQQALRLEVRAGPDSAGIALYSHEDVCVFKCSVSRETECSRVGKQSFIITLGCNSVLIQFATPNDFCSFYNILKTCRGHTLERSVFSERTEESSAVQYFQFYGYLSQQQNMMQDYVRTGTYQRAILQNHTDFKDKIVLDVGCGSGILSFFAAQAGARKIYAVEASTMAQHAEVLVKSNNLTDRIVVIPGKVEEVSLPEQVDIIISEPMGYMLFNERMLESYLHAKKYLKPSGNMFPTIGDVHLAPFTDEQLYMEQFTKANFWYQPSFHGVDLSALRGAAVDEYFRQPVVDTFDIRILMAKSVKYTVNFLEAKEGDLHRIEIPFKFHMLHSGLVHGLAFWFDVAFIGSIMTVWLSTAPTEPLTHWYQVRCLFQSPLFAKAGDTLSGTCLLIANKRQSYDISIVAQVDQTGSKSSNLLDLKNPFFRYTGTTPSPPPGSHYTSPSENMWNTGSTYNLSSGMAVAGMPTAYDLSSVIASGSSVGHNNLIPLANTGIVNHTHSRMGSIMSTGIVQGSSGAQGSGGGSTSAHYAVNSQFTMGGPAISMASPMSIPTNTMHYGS
ASSAY REMARKS: PRMT4 methyltransferase scintillation proximity assay
Type: biochemical
Set-up: 1–608; made in house
ASSAY ENDPOINT: pIC50
Scale: negative log10 of molar concentration, which is what pIC50 denotes.

Prompt line: Identify the measured pIC50 of COCCN1CCC(c2cc(CN(C)C(=O)c3cccc(Oc4ccccc4)c3)ccn2)CC1 [TP-064N] for PRMT4 (Homo sapiens).
Response line: 5.60

====

MEASUREMENT TARGET: PRMT1 (Homo sapiens)
Sequence (Q99873 30-371): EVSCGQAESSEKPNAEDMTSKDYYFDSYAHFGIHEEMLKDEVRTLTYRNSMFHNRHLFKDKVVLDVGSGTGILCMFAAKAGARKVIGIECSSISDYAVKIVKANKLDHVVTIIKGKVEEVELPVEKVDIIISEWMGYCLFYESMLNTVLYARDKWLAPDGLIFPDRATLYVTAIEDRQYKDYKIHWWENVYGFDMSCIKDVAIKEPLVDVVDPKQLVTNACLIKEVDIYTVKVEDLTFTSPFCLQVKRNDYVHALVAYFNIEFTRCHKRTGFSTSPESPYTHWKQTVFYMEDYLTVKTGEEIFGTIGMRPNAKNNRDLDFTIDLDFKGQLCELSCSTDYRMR
pIC50: −log10 of the molar value.
ASSAY ENDPOINT: pIC50

Prompt line: Identify the measured pIC50 of COCCN1CCC(c2cc(CN(C)C(=O)c3cccc(Oc4ccccc4)c3)ccn2)CC1 [TP-064N] for PRMT1 (Homo sapiens).
Response line: < 5.00
